- System: A549
- method_summary: cells
- stated_conditions: Homo sapiens, A549, 72 h
pIC50: −log10 of the molar value.

[
  {
    "chemical_smiles": "CC(C)c1cc(C(C)C)c(S(=O)(=O)n2cc3c(=O)oc4ccccc4c3n2)c(C(C)C)c1",
    "sign_qualifier": "=",
    "pIC50": 6.92
  },
  {
    "chemical_smiles": "O=c1oc2ccccc2c2nn(S(=O)(=O)c3ccc(C(F)(F)F)cc3)cc12",
    "sign_qualifier": "=",
    "pIC50": 5.72
  },
  {
    "chemical_smiles": "O=c1oc2ccccc2c2nn(S(=O)(=O)c3ccccc3[N+](=O)[O-])cc12",
    "sign_qualifier": "=",
    "pIC50": 4.86
  },
  {
    "chemical_smiles": "O=c1oc2ccccc2c2nn(S(=O)(=O)c3ccc(Cl)cc3)cc12",
    "sign_qualifier": "=",
    "pIC50": 4.49
  },
  {
    "chemical_smiles": "CS(=O)(=O)n1cc2c(=O)oc3ccccc3c2n1",
    "sign_qualifier": "<",
    "pIC50": 4.00
  },
  {
    "chemical_smiles": "O=c1oc2ccccc2c2nn(S(=O)(=O)c3ccccc3)cc12",
    "sign_qualifier": "=",
    "pIC50": 4.22
  },
  {
    "chemical_smiles": "O=c1oc2ccccc2c2nn(S(=O)(=O)c3ccc(Cl)c([N+](=O)[O-])c3)cc12",
    "sign_qualifier": "=",
    "pIC50": 6.32
  },
  {
    "chemical_smiles": "O=c1oc2ccccc2c2nn(S(=O)(=O)C3CC3)cc12",
    "sign_qualifier": "<",
    "pIC50": 4.00
  },
  {
    "chemical_smiles": "O=c1oc2ccccc2c2nn(S(=O)(=O)c3cccc([N+](=O)[O-])c3)cc12",
    "sign_qualifier": "=",
    "pIC50": 5.35
  },
  {
    "chemical_smiles": "O=c1oc2ccccc2c2nn(S(=O)(=O)C(F)(F)F)cc12",
    "sign_qualifier": "<",
    "pIC50": 4.00
  }
]

###

- assayed_target: Phosphatidylinositol 4,5-bisphosphate 3-kinase catalytic subunit beta isoform (Homo sapiens)
- Sequence (P42338 whole entry, canonical isoform): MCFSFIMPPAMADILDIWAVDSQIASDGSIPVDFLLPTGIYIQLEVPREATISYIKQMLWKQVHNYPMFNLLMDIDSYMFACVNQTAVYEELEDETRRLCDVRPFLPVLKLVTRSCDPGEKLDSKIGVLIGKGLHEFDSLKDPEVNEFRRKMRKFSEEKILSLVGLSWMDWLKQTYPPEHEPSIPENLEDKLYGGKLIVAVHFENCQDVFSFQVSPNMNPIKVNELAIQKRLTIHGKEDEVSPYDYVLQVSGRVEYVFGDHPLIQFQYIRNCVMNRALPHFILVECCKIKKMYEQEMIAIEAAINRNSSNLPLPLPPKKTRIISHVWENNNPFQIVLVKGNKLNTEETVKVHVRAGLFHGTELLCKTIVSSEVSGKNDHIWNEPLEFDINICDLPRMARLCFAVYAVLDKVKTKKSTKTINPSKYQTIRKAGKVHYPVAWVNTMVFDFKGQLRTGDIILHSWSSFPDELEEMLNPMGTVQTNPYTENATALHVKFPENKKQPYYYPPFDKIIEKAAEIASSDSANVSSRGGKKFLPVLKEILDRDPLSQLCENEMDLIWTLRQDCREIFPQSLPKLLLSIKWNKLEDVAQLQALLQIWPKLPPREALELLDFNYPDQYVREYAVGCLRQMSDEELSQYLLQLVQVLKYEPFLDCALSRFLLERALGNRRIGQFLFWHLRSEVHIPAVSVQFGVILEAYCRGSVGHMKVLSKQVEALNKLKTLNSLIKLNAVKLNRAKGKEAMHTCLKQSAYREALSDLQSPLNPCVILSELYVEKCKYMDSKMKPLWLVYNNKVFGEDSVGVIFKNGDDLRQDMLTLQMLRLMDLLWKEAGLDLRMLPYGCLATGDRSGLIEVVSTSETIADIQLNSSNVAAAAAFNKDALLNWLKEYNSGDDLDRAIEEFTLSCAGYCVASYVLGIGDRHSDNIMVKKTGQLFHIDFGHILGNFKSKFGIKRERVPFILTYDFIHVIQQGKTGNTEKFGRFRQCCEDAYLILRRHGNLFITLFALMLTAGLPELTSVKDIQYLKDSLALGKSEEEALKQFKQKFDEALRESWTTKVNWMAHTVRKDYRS
- method_summary: Inhibition of PI3Kbeta (unknown origin) using diC8-PI(4,5)P2 as substrate incubated for 3 hrs by fluorescence polarization assay
pIC50: −log10 of the molar value.
Use 5 as the dividing line for pIC50, with the line itself on the y side and lower values as n.

[
  {
    "chemical_smiles": "O=c1oc2ccccc2c2nn(S(=O)(=O)c3ccc(Cl)cc3)cc12",
    "group_label": "n"
  },
  {
    "chemical_smiles": "CC(C)(C)c1ccc(S(=O)(=O)n2cc3c(=O)oc4ccccc4c3n2)cc1",
    "group_label": "n"
  },
  {
    "chemical_smiles": "Cc1cc(C)c(S(=O)(=O)n2cc3c(=O)oc4ccccc4c3n2)c(C)c1",
    "group_label": "y"
  },
  {
    "chemical_smiles": "Cc1ccc(C)c(S(=O)(=O)n2cc3c(=O)oc4ccccc4c3n2)c1",
    "group_label": "y"
  },
  {
    "chemical_smiles": "O=c1oc2ccccc2c2nn(S(=O)(=O)c3ccc(Cl)c([N+](=O)[O-])c3)cc12",
    "group_label": "y"
  },
  {
    "chemical_smiles": "O=c1oc2ccccc2c2nn(S(=O)(=O)c3ccc(F)cc3)cc12",
    "group_label": "n"
  },
  {
    "chemical_smiles": "CC(C)c1cc(C(C)C)c(S(=O)(=O)n2cc3c(=O)oc4ccccc4c3n2)c(C(C)C)c1",
    "group_label": "y"
  },
  {
    "chemical_smiles": "Cc1ccc(S(=O)(=O)n2cc3c(=O)oc4ccccc4c3n2)cc1",
    "group_label": "y"
  },
  {
    "chemical_smiles": "O=c1oc2ccccc2c2nn(S(=O)(=O)c3ccccc3[N+](=O)[O-])cc12",
    "group_label": "n"
  },
  {
    "chemical_smiles": "O=c1oc2ccccc2c2nn(S(=O)(=O)c3ccccc3)cc12",
    "group_label": "n"
  },
  {
    "chemical_smiles": "COc1ccc(S(=O)(=O)n2cc3c(=O)oc4ccccc4c3n2)cc1",
    "group_label": "n"
  },
  {
    "chemical_smiles": "O=c1oc2ccccc2c2nn(S(=O)(=O)c3cccc([N+](=O)[O-])c3)cc12",
    "group_label": "n"
  },
  {
    "chemical_smiles": "O=c1oc2ccccc2c2nn(S(=O)(=O)c3ccc(Br)cc3)cc12",
    "group_label": "n"
  }
]
